- Protocol notes: Encapsulation rate, drug loading concentration and total RNA concentration detection (RiboGreen)
- Format: physicochemical
- Stated conditions: LNP formulation of the named lipid
compounds and their reported Drug loading concentration
Please make sure the unit comes right after the number.

Below, 4 compounds whose answers are already recorded.
{"Compound": "CCCCCCCCCCOC(=O)CCCN(CCO)CCCCCC(=O)OCC(CCCCCCCC)CCCCCCCC [YK-009, reference compound]", "Value": "26.86 µg/mL"}
{"Compound": "CCCCCCCCCCOC(=O)CCCN(CCCCCC(=O)OCC(CCCCCCCC)CCCCCCCC)CCN(C)CCO", "Value": "39.60 µg/mL"}
{"Compound": "CCCCCCCCCCCOC(=O)CCCCCN(CCCCCCCC(=O)OC(CCCCCCCC)CCCCCCCC)CCN(CC)CCO", "Value": "32.62 µg/mL"}
{"Compound": "CCCCCCCCCCOC(=O)CCCN(CCCCCC(=O)OCCC(CCCCCC)CCCCCC)CCOC(=O)SCCCN(C)C", "Value": "42.19 µg/mL"}

Prompt: Reported Drug loading concentration for CCCCCCC(CCCCCC)CCOC(=O)CCCCCN(CCCCCC(=O)OCCC(CCCCCC)CCCCCC)CCN(CCO)CCO : what is it?
Response: 38.16 µg/mL

Prompt: Same question for CCCCCCCCCCCOC(=O)CCCCCN(CCO)CCCCCCCC(=O)OC(CCCCCCCC)CCCCCCCC [SM-102, reference compound] please.
Response: 25.44 µg/mL

Prompt: Same question for CCCCCCC(CCCCCC)CCOC(=O)CCCCCN(CCCCCC(=O)OCCC(CCCCCC)CCCCCC)CCN(C)CCNC please.
Response: 38.74 µg/mL

Prompt: Same question for CCCCCCCCCCOC(=O)CCCN(CCCCCC(=O)OCC(CCCCCCCC)CCCCCCCC)C(=O)SCCCN(C)C please.
Response: 30.31 µg/mL

Prompt: Same question for CCCCCCCCC(CCCCCCCC)COC(=O)CCCCCN(CCCCCC(=O)OCC(CCCCCCCC)CCCCCCCC)CCN(CCO)CCO please.
Response: 40.25 µg/mL

Prompt: Same question for CCCCCCCCC(CCCCCCCC)OC(=O)CCCCCN(CCCCCC(=O)OC(CCCCCCCC)CCCCCCCC)CCN(CCO)CCO please.
Response: 34.70 µg/mL

Prompt: Same question for CCCCCCC(CCCCCC)CCOC(=O)CCCCCCCN(CCO)CCCCCCCC(=O)OCCC(CCCCCC)CCCCCC [Compound 23, reference compound] please.
Response: 20.7 µg/mL

Prompt: Same question for CCCCCCCCCCCCC(O)CN(C)CCCCCC(=O)OCC(CCCCCC)CCCCCCCC (stereo not drawn) [HHMA, reference compound] please.
Response: 30.6 µg/mL

Prompt: Same question for CCCCCCCCC(CCCCCCCC)OC(=O)CCCCCN(CCCCCC(=O)OC(CCCCCCCC)CCCCCCCC)CCN(C)CCO please.
Response: 36.50 µg/mL

Prompt: Same question for CCCCCCCCC(CCCCCCCC)COC(=O)CCCCCN(CCCCCC(=O)OCC(CCCCCCCC)CCCCCCCC)CCN(C)CCO please.
Response: 41.76 µg/mL

Prompt: Same question for CCCCCCCCCCCOC(=O)CCCCCN(CCCCCCCC(=O)OCCC(CCCCCC)CCCCCC)CCN(C)CCO please.
Response: 38.38 µg/mL
